- assaySystem: T1, GST-LEC2-B3 (Arabidopsis thaliana, UniProt Q1PFR7)
- T1 chain: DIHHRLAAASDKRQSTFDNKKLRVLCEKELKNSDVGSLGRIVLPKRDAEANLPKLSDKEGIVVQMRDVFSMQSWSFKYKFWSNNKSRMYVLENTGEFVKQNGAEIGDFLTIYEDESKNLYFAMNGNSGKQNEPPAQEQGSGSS
- assayProcedure: EMSA; BLI: Octet Qke, 1x Kinetics Buffer (ForteBio), pH 7.0, 0.05 uM biotinylated probe on streptavidin, temperature not stated; EMSA: MgCl2, 0.05% NP-40, 0.5 nM probe, 15 ul, room temperature 20 min, 6% gel in 0.5x TBE (rest of buffer not in material)
- studyConditions: protein: recombinant; tags: GST (N-terminal, pGEX-2T); label: 5' biotin on strand 1 (strand 2 oligo also named 5-Biotin-probe); blunt
metric: Kd (nM)

Sph2 probe (dsDNA) DNA 1: CACGGATCATGCATGGACGACACGGATCATGCATGGACGACACG DNA 2: CGTGTCGTCCATGCATGATCCGTGTCGTCCATGCATGATCCGTG	198

Sourced from paper PMC8136769
